Item-by-item account of ELISA score
target-entity: T1, human neonatal Fc receptor (hFcRn) (human, UniProt P55899 24-290; P61769 21-119)
T1 construct: Biotinylated in the ELISA, Octet and yeast assays; also called human FcRn; huFcRn
T1 sequence (P55899 24-290 limits assumed, chain 1 of 2): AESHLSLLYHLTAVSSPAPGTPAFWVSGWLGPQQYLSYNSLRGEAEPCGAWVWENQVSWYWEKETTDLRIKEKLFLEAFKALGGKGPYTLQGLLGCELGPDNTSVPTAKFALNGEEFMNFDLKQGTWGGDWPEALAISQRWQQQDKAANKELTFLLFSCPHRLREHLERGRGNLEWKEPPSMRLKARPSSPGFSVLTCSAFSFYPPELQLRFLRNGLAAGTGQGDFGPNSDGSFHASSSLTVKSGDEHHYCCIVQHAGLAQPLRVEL
T1 sequence (P61769 21-119 limits assumed, chain 2 of 2): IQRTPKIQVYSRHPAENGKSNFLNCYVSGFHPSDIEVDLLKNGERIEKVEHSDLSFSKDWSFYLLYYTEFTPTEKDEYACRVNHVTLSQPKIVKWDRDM
test-method-notes: phage ELISA pH 6;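 note: higher score means stronger binding and above about 3 to 5 exceeds background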
Description: Approximately 100 μL of biotinylated human FcRn at 2 μg/mL was added to the wells of MAXISORP™ plates coated with 10 μg/mL streptavidin. […] A horseradish peroxidase (HRP)-conjugated anti-M13 antibody was used to detect the binding phage, and the plates were scored by a microtiter plate reader using a wavelength in the visible range. Binding was assessed by a quantitative enzyme-linked immunoadsorbent assay (ELISA). […]

{"columns": ["binder", "ELISA score"],
 "data": [
  ["L6B isolate with insertion SEQ ID NO: 454 (other) EPKSCDKTHTCPPCPAPELLGGPSVFLFPPKPKDTLMISRTPEVTCVVVDVSHEDPEVKFNWYVDGVEVHNAKTKPREEQYNSTYRVVSVLTVLHQDWLNGKEYKCKVSNKALPAPIEKTISKAKGQPREPQVYTLPPSRDELGGCYGKAGMRDCGGTKNQVSLTCLVKGFYPSDIAVEWESNGQPENNYKTTPPVLDSDGSFFLYSKLTVDKSRWQQGNVFSCSVMHEALHNHYTQKSLSLSPGK", 50.1],
  ["L5 isolate with insertion SEQ ID NO: 417 (other) EPKSCDKTHTCPPCPAPELLGGPSVFLFPPKPKDTLMISRTPEVTCVVVDVSHEDPEVKFNWYVDGVEVHNAKTKPREEQYNSTYRVVSVLTVLHQDWLNGKEYKCKVSNKALPAPIEKTISKAKGQPREPQVYTLPPSRDELTKNQVSLTCLVKGFYPSDIAVEWESNGGCTEQVMWCGGGQPENNYKTTPPVLDSDGSFFLYSKLTVDKSRWQQGNVFSCSVMHEALHNHYTQKSLSLSPGK", 62.2]
]}
